Listing of recorded [L-DOPA] (μg/ml) at time (hours) 6.0 by entry.
assay: Blood concentration of L-DOPA following oral administration of L-DOPA or an L-DOPA derivative to Beagle dogs; details: blood, 6.0 hours after oral administration of 0.1 of L-DOPA or equivalent amount of derivative; three Beagle dogs
Report only the number, with the unit µg/mL understood.

Previously resolved entries follow.
[
  {
    "compound": "CC(=O)Oc1ccc(C[C@H](N)C(=O)NCC(=O)O)cc1OC(C)=O.Cl [Compound (V)]",
    "[L-DOPA] (μg/ml) at time (hours) 6.0 / µg/mL": 0
  },
  {
    "compound": "CC(=O)Oc1ccc(C[C@H](NC(=O)CN)C(=O)O)cc1OC(C)=O.Cl [Compound (III)]",
    "[L-DOPA] (μg/ml) at time (hours) 6.0 / µg/mL": 0.02
  },
  {
    "compound": "COC(=O)[C@H](Cc1ccc(OC(C)=O)c(OC(C)=O)c1)NC(=O)CN.Cl [Compound (IV)]",
    "[L-DOPA] (μg/ml) at time (hours) 6.0 / µg/mL": 0
  },
  {
    "compound": "CC(=O)Oc1ccc(C[C@H](N)C(=O)OCc2ccccc2)cc1OC(C)=O.Cl [Compound (II)]",
    "[L-DOPA] (μg/ml) at time (hours) 6.0 / µg/mL": 0.05
  }
]

Now look at this one.
Prompt: Let me know recorded [L-DOPA] (μg/ml) at time (hours) 6.0 for N[C@@H](Cc1ccc(O)c(O)c1)C(=O)O [(0), 3,4-dihydroxy-L-phenylalanine, reference compound] , thanks.
Completion: 0.11

----------
assay: Blood concentration of L-DOPA following oral administration of L-DOPA or an L-DOPA derivative to Beagle dogs; settings: blood, 0.5 hours after oral administration of 0.1 of L-DOPA or equivalent amount of derivative; three Beagle dogs;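 note: dogs of both sexes, 12 to 14 Kg body weight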
Listing of recorded [L-DOPA] (μg/ml) at time (hours) 0.5 by entry.
Report only the number, with the unit µg/mL understood.

Previously resolved entries follow.
[
  {
    "compound": "COC(=O)[C@H](Cc1ccc(OC(C)=O)c(OC(C)=O)c1)NC(=O)CN.Cl",
    "number": 0.79
  },
  {
    "compound": "CC(=O)Oc1ccc(C[C@H](N)C(=O)OCc2ccccc2)cc1OC(C)=O.Cl",
    "number": 1.71
  },
  {
    "compound": "CC(=O)Oc1ccc(C[C@H](NC(=O)CN)C(=O)O)cc1OC(C)=O.Cl",
    "number": 1.34
  }
]

Prompt: Let me know recorded [L-DOPA] (μg/ml) at time (hours) 0.5 for CC(=O)Oc1ccc(C[C@H](N)C(=O)NCC(=O)O)cc1OC(C)=O.Cl , thanks.
Completion: 0.26

Prompt: Let me know recorded [L-DOPA] (μg/ml) at time (hours) 0.5 for N[C@@H](Cc1ccc(O)c(O)c1)C(=O)O [(0), 3,4-dihydroxy-L-phenylalanine, reference compound] , thanks.
Completion: 0.14
